Source of measurements: patent US20180305341A1

Parameter: IC50. Scope: all listed entries.
# measured-on: human TRPM8 (Homo sapiens, UniProt Q7Z2W7)
# Sequence (Q7Z2W7 whole entry): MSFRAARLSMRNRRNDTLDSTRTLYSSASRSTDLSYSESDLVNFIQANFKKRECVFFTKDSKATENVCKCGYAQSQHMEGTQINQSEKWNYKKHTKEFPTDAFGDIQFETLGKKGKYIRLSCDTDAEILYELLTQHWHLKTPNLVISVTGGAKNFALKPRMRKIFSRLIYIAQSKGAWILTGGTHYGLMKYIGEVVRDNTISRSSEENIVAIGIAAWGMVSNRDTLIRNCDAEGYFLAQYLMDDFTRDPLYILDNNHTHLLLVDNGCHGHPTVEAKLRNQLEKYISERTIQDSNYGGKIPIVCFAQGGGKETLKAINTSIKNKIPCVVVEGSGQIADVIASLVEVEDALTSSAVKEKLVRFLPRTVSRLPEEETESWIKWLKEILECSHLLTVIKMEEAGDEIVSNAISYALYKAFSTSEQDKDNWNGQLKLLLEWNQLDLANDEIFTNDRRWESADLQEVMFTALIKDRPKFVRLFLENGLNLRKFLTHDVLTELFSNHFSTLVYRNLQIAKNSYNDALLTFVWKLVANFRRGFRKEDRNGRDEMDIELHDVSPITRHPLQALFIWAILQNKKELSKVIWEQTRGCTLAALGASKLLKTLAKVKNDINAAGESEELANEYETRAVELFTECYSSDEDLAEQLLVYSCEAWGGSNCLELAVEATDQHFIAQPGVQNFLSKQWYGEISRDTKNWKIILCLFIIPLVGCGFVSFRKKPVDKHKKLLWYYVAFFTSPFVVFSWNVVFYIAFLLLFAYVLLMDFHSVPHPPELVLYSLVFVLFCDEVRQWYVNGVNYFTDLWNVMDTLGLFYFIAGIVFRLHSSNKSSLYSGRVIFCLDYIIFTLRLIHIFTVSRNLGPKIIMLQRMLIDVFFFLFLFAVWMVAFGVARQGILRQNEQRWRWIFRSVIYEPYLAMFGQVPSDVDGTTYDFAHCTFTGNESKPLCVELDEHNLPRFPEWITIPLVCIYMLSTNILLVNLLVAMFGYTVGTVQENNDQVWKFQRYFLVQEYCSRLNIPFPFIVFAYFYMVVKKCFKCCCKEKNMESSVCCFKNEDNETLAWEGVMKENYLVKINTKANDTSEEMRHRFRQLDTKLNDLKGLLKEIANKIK
# test-name: Menthol-induced Ca2+ influx in HEK293 cells stably expressing human TRPM8
# assay-conditions: 30 microM menthol, read-out: IC50 against TRPM8
# Experimental: Measurement of the Menthol-Induced Ca^2+ Influx in HEK293 Cells Stably Expressing Human TRPM8 A cell-based Ca^2+ influx assay using HEK293 cells stably expressing human TRPM8 is used to identify the activity of compounds. […] The IC50 values for compounds of the present invention are determined from 11-point dose-response studies. […] Finally, the IC50 values are calculated with the best-fit dose curve determined by XLfit (ID Business Solutions Ltd.).

Reference set, count: 5
CC1=NC2(CCC(F)(F)CC2)C(=O)N1CC(=O)c1ccc(-n2c(C)nc3ccccc32)cc1 [Example 5]	< 50 nM
CC1=NC2(CCC(F)(F)CC2)C(=O)N1CC(=O)c1ccc(Oc2cccnn2)cc1 [Example 1]	< 50 nM
CC1=NC2(CCC(F)(F)CC2)C(=O)N1CC(=O)c1ccc(-c2nnccc2C)cc1 [Example 4]	< 100 nM
CC1=NC2(CCCCC2)C(=O)N1CC(=O)c1ccc(-n2c(C)nc3ccccc32)cc1 [Example 2]	< 50 nM
CCC1=NC2(CCC(F)(F)CC2)C(=O)N1CC(=O)c1ccc(Oc2cccnn2)cc1 [Example 3]	< 50 nM

Read the entry CC1=NC2(CCC(F)(F)CC2)C(=O)N1CC(=O)c1ccc(-n2c(C)nc3cccnc32)cc1 [Example 6] and write its reported IC50.
< 50 nM
